Tested on: K562 cell line
Experiment: Cell viability assay ([…]-GLO), K562
Assay type: cell-based
Conditions: Homo sapiens; K562 (does not express ITD-FLT3), 72 hours treatment
Protocol: Cell viability in the presence of varying concentrations of the above listed compounds at different time points was used to assess cytotoxicity and the effect of the compounds on cell proliferation. Cell viability was measured by the […]-GlO® cell viability assay from Promega (Madison, Wis.). […] Luminescence values were measured at using a Molecular Devices Spectramax microplate reader. […]
parameter: pIC50
The meaning of pIC50 here: minus log10 of the concentration in molar units.

State its pIC50: COc1ccc(CNC(=O)c2cccc([C@@H](CO)NC(=O)c3ccc(-c4ccncc4)cc3)c2)cc1 [Compound 85]
4.48

Next:
State its pIC50: CN(C)Cc1ccc(CNC(=O)c2cccc([C@@H](CO)NC(=O)c3ccc(-c4ccncc4)cc3)c2)cc1 [Compound 32]
4.43

###

test: Pharmacokinetic activity in mice; type: in vivo; settings: mouse, plasma, PO - 5 mg/kg
Below, each entry is listed with its recorded Tmax.
API: value field is a number in h; no unit string.

For orientation, consider the following solved cases.
State its Tmax: O=C(NC1CCCC1)c1cccc([C@@H](CO)NC(=O)c2ccc(-c3ccncc3)cc2)c1 [Compound 10]
1

State its Tmax: CN1CCc2ccc(NC(=O)c3cccc([C@@H](CO)NC(=O)c4ccc(-c5ccncc5)cc4)c3)cc2C1 [Compound 7]
1

Proceed to the following item.
State its Tmax: C[C@@H](NC(=O)c1ccc(-c2ccncc2)cc1)c1cccc(C(=O)NC2CCCC2)c1 [Compound 36]
1

###

target: ROCK2 (Homo sapiens (Human))
Sequence (O75116 whole entry, species assumed): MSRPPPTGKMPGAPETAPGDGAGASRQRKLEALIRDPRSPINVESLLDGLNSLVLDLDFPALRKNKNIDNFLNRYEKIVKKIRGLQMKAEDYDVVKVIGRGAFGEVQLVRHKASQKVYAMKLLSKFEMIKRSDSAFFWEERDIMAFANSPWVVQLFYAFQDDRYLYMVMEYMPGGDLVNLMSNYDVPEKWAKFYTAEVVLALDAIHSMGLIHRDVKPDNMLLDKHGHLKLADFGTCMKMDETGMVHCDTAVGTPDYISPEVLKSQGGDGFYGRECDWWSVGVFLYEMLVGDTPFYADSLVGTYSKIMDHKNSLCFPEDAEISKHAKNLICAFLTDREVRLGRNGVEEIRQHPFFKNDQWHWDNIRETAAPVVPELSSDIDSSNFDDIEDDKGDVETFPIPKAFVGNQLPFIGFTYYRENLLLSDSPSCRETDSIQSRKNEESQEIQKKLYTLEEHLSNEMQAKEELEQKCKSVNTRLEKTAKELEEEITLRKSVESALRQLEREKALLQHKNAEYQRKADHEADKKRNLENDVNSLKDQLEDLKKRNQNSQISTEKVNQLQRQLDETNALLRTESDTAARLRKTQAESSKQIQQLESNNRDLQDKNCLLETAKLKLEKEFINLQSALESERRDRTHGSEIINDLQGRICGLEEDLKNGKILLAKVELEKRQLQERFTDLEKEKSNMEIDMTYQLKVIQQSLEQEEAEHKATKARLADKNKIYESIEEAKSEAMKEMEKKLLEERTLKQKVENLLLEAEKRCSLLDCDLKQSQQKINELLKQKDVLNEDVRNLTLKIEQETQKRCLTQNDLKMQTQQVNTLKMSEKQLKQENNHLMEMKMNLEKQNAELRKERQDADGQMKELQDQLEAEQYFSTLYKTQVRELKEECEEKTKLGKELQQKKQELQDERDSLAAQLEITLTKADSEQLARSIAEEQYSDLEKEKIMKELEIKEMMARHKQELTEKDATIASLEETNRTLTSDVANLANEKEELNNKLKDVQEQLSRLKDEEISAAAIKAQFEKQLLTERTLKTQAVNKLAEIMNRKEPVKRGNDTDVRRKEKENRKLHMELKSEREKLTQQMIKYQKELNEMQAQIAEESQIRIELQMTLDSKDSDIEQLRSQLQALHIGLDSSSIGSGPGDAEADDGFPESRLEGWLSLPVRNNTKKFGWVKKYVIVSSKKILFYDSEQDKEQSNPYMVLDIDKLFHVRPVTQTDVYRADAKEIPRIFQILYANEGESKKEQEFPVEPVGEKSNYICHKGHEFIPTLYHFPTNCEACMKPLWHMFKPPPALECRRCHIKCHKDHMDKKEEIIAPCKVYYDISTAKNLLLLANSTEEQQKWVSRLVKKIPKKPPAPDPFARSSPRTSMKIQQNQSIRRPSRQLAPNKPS
We label by threshold. Values of IC50 strictly beneath 0.6 nM are Criterion met. Values of 0.6 nM and up are Criterion not met.

These recorded examples may help you get a feel for the data.
Strictly below 0.6 nM in IC50? O=C(NC1CCN(CC(F)(F)F)CC1)c1cccc([C@@H](CO)NC(=O)c2ccc(-c3ccncc3)cc2)c1 [Compound 92]
Criterion not met

Strictly below 0.6 nM in IC50? COc1cc(-c2ccncc2)ccc1C(=O)N[C@H](CO)c1cccc(C(=O)NC2CCCC2)c1
Criterion not met

Strictly below 0.6 nM in IC50? O=C(NC1CCCC1)c1cccc([C@@H](CO)NC(=O)c2ccc(-c3ccncc3)cc2F)c1
Criterion not met

Next:
Strictly below 0.6 nM in IC50? CCOc1cc(-c2cn[nH]c2)ccc1C(=O)N[C@H](CO)c1cccc(C(=O)NC2CCCC2)c1
Criterion met

Strictly below 0.6 nM in IC50? CN1CCC(NC(=O)c2cccc([C@@H](CO)NC(=O)c3ccc(-c4ccncc4)cc3)c2)CC1
Criterion met

###

Assay: Pharmacokinetic activity in mice
Type: in vivo
Conditions: mouse, plasma, IV - 1 mg/kg, read-out: AUC0-8
Protocol: Compounds were individually and accurately weighed out to produce a stock solution in Dimethyl-sulfoxide (DMSO) at a concentration of 2 mg/mL and stored at −20° C. […] Standards used for quantitation and quality control samples (QCs) were prepared on the same day of sample processing using blank plasma obtained from non-treated mice. […] Plasma samples were stored at −80° C. until ready for analysis and then placed on ice for thawing. […]
Below, each entry is listed with its recorded AUC(0-t).
API: value field is a number in ng·h/mL; no unit string.

For orientation, consider the following solved cases.
State its AUC(0-t): C[C@@H](NC(=O)c1ccc(-c2ccncc2)cc1)c1cccc(C(=O)NC2CCCC2)c1 [Compound 36]
5850

State its AUC(0-t): O=C(NC1CCCC1)c1cccc([C@@H](CO)NC(=O)c2ccc(-c3ccncc3)cc2)c1 [Compound 10]
5350

Proceed to the following item.
State its AUC(0-t): CN1CCc2ccc(NC(=O)c3cccc([C@@H](CO)NC(=O)c4ccc(-c5ccncc5)cc4)c3)cc2C1 [Compound 7]
235

###

experiment: Pharmacokinetic activity in mice; format: in vivo; conditions: mouse, plasma, IV - 1 mg/kg
Below, each entry is listed with its recorded half-life.
Please give the number followed by its unit.

State its half-life: CN1CCc2ccc(NC(=O)c3cccc([C@@H](CO)NC(=O)c4ccc(-c5ccncc5)cc4)c3)cc2C1 [Compound 7]
6.43 h

Next:
State its half-life: C[C@@H](NC(=O)c1ccc(-c2ccncc2)cc1)c1cccc(C(=O)NC2CCCC2)c1 [Compound 36]
2.59 h

State its half-life: O=C(NC1CCCC1)c1cccc([C@@H](CO)NC(=O)c2ccc(-c3ccncc3)cc2)c1 [Compound 10]
3.86 h

###

Below, each entry is listed with its recorded AUC(0-inf).
test: Pharmacokinetic activity in mice; assay type: in vivo; conditions: mouse, plasma, PO - 5 mg/kg
API: value field is a number in ng·h/mL; no unit string.

State its AUC(0-inf): C[C@@H](NC(=O)c1ccc(-c2ccncc2)cc1)c1cccc(C(=O)NC2CCCC2)c1
10500

Next:
State its AUC(0-inf): O=C(NC1CCCC1)c1cccc([C@@H](CO)NC(=O)c2ccc(-c3ccncc3)cc2)c1
51500

###

assay: Pharmacokinetic activity in mice; assay type: in vivo; settings: mouse, plasma, IV - 1 mg/kg, read-out: Vss
parameter: Vd (L/kg)
API: value field is a number in L/kg; no unit string.

State its Vd: O=C(NC1CCCC1)c1cccc([C@@H](CO)NC(=O)c2ccc(-c3ccncc3)cc2)c1
0.32

State its Vd: CN1CCc2ccc(NC(=O)c3cccc([C@@H](CO)NC(=O)c4ccc(-c5ccncc5)cc4)c3)cc2C1
16.3

Proceed to the following item.
State its Vd: C[C@@H](NC(=O)c1ccc(-c2ccncc2)cc1)c1cccc(C(=O)NC2CCCC2)c1
0.27

###

Below, each entry is listed with its recorded CL/F.
experiment: Pharmacokinetic activity in mice; format: in vivo; conditions: mouse, plasma, PO - 5 mg/kg
API: value field is a number in L/h/kg; no unit string.

State its CL/F: O=C(NC1CCCC1)c1cccc([C@@H](CO)NC(=O)c2ccc(-c3ccncc3)cc2)c1 [Compound 10]
0.09

Proceed to the following item.
State its CL/F: C[C@@H](NC(=O)c1ccc(-c2ccncc2)cc1)c1cccc(C(=O)NC2CCCC2)c1 [Compound 36]
0.48

###

assay: Pharmacokinetic activity in mice; assay type: in vivo; settings: mouse, plasma, PO - 5 mg/kg vs IV - 1 mg/kg
parameter: bioavailability (%)
API: value field is a number in %; no unit string.

State its bioavailability: C[C@@H](NC(=O)c1ccc(-c2ccncc2)cc1)c1cccc(C(=O)NC2CCCC2)c1 [Compound 36]
34.6

###

tested on: K562 cell line; assay: Cell viability assay ([…]-GLO), K562; assay type: cell-based; details: Homo sapiens; K562 (does not express ITD-FLT3), 72 hours treatment
Below, each entry is listed with its recorded IC50.
API: value field is a number in µM; no unit string.

For orientation, consider the following solved cases.
State its IC50: C[C@@H](NC(=O)c1ccc(-c2ccncc2)cc1)c1cccc(C(=O)NC2CC2)c1
58

State its IC50: CCOc1cc(-c2cn[nH]c2)ccc1C(=O)N[C@H](C)c1cccc(C(=O)NC2CCCC2)c1
8

Next:
State its IC50: Cc1c[nH]c2nccc(Oc3c(F)cc(Nc4cc(Cl)nc(N)n4)cc3F)c12 [Compound A, reference compound]
0.8

State its IC50: CN1CCc2ccc(NC(=O)c3cccc([C@@H](CO)NC(=O)c4ccc(-c5ccncc5)cc4)c3)cc2C1=O
25

// data source = patent US10738007B2
